- TARGET: TRKA G595R (Homo sapiens, UniProt P04629, G595R)
- Construct: purchased Signal Chem Life Sciences N16-12BG
- Sequence (P04629 33-796 G595R): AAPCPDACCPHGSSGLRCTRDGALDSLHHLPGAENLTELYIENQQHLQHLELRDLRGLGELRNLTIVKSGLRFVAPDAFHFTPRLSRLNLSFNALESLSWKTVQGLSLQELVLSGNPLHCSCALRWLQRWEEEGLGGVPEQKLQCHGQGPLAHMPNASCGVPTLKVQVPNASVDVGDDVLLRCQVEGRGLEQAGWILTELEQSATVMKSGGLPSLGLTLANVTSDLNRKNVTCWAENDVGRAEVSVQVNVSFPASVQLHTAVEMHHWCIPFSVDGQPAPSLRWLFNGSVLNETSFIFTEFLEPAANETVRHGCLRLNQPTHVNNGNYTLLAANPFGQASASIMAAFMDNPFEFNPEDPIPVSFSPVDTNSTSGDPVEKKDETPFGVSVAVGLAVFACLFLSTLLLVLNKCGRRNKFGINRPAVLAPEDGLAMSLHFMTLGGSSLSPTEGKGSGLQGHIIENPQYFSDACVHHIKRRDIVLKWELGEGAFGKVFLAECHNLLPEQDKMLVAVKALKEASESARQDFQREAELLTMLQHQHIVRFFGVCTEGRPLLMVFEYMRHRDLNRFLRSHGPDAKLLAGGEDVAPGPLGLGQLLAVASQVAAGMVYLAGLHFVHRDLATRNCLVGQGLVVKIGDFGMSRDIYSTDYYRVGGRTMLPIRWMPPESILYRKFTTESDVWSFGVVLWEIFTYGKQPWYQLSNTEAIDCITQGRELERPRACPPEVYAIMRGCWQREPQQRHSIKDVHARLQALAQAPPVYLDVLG
- PROCEDURE_DETAILS: TRKA G595R activity inhibition test (HTRF kinase assay)
- Assay type: biochemical
- EXPERIMENTAL_SETUP: humanized recombined TRKA G595R protein, 2.9 μM ATP
pIC50: −log10 of the molar value.
METRIC_NAME: pIC50

[I] CN1CCOc2ncc(F)cc2[C@H]2C[C@H](F)CN2c2ccn3ncc(c3n2)NC1=O [Compound 3]
[II] C[C@H]1CNC(=O)Nc2cnn3ccc(nc23)N2C[C@@H](F)C[C@@H]2c2cc(F)cnc2O1 [Compound 1]
[III] C[C@H]1CCNC(=O)Nc2cnn3ccc(nc23)N2CCC[C@@H]2c2cc(F)cnc2O1 [Compound 4]
Order by pIC50, ascending. Labels, requested order.
I, III, II

====

- TARGET: TRKA (Homo sapiens, UniProt P04629)
- Sequence (P04629 33-796): as the sequence (P04629 33-796 G595R) above, with R563G counted along it
- PROCEDURE_DETAILS: TRKA activity inhibition test (HTRF kinase assay)
- EXPERIMENTAL_SETUP: humanized recombined TRKA protein, 8.4 μM ATP
pIC50: −log10 of the molar value.
METRIC_NAME: pIC50

The following compounds have reported results that may help.
compound="C[C@H]1CCNC(=O)Nc2cnn3ccc(nc23)N2CCC[C@@H]2c2cc(F)cnc2O1 [Compound 4]" metric_name=pIC50 experimental_result=8.97
compound="O=C1NCCOc2ncc(F)cc2[C@H]2C[C@H](F)CN2c2ccn3ncc(c3n2)N1 [Compound 2]" metric_name=pIC50 experimental_result=9.01

[A] C[C@H]1CNC(=O)Nc2cnn3ccc(nc23)N2C[C@@H](F)C[C@@H]2c2cc(F)cnc2O1 [Compound 1]
[B] CN1CCOc2ncc(F)cc2[C@H]2C[C@H](F)CN2c2ccn3ncc(c3n2)NC1=O [Compound 3]
Would you kindly point out which of A and B has the smaller pIC50 figure? Lab note: record the label of whichever item you select.
B
(B: 8.84, A: 9.62)
